Test system: breast MDA-MB-435
Test: COMPARE screening (NCI human cancer cell line screen), cytotoxicity GI50
Assay type: cell-based
reported_property: GI50 (nM)
Write down the numeric answer in nM and omit the unit.

// worked examples, GI50 included
compound=CN(C)CCCn1c2c(c3cc4c(cc3c1=O)OCO4)C(=O)c1ccccc1-2 assay_system="breast MDA-MB-435" reported_value=3020
compound="O=C1c2ccccc2-c2c1c1ccccc1c(=O)n2CCNCCO [Compound S-2, oracin, reference compound]" assay_system="breast MDA-MB-435" reported_value=2560
compound="COc1cc2c3c(n(CCCN4CCC(N)CC4)c(=O)c2cc1OC)-c1cc2c(cc1C3=O)OCO2.Cl.Cl [Compound 5u, Dihydrochloride]" assay_system="breast MDA-MB-435" reported_value=1740

Query `COc1ccc2c(c1)C(=O)c1c-2n(CCCN2CCOCC2)c(=O)c2ccccc12` on breast MDA-MB-435; GI50 returned: 4680

###

// log10 GI50 lookup, one value per entry
Tested on: CNS SF-539
Experiment: COMPARE screening (NCI human cancer cell line screen), cytotoxicity GI50
Assay type: cell-based
Protocol: Selected compounds were tested for antiproliferative activity in the National Cancer Institute's developmental therapeutics assay 60 cell line screen (NCI60). The cells were incubated with the tested compounds at 100, 10, 1, 0.1, and 0.01 μM concentrations for 48 h before treatment with sulforhodamine B dye. Optical densities were recorded, and their ratios relative to that of the control were plotted as percentage growth against the log 10 of the tested compound concentrations.
Please be aware that the numbers have been log10-transformed from GI50 in µM.

// worked examples, log10 GI50 included
test_smiles=CN(C)CCCn1c2c(c3cc4c(cc3c1=O)OCO4)C(=O)c1ccccc1-2 reported_property="log10 GI50" reported_value=0.43
test_smiles=CC(C)(C)OC(=O)NCCCCCCCCCCCCn1c2c(c3ccccc3c1=O)C(=O)c1ccccc1-2 reported_property="log10 GI50" reported_value=1.31
test_smiles=COc1ccc2c(c1)C(=O)c1c-2n(CCCN)c(=O)c2ccccc12.Cl reported_property="log10 GI50" reported_value=-1.42
test_smiles=COc1ccc2c(c1)C(=O)c1c-2n(CCCNCCO)c(=O)c2ccccc12.Cl reported_property="log10 GI50" reported_value=-0.95

response.value for `CC(C)(C)OC(=O)NCCCCCCCn1c2c(c3ccccc3c1=O)C(=O)c1ccccc1-2` (field: log10 GI50) = 1.32

response.value for `COc1ccc2c(c1)C(=O)c1c-2n(CCCCl)c(=O)c2cc([N+](=O)[O-])ccc12` (field: log10 GI50) = -1.57

###

Test system: colon HCT-116
Assay: COMPARE screening (NCI human cancer cell line screen), cytotoxicity GI50
Format: cell-based
Method: Selected compounds were tested for antiproliferative activity in the National Cancer Institute's developmental therapeutics assay 60 cell line screen (NCI60). The cells were incubated with the tested compounds at 100, 10, 1, 0.1, and 0.01 μM concentrations for 48 h before treatment with sulforhodamine B dye. Optical densities were recorded, and their ratios relative to that of the control were plotted as percentage growth against the log 10 of the tested compound concentrations.
reported_property: GI50 (nM)
Write down the numeric answer in nM and omit the unit.

compound="COc1cc2c3c(n(CCCN4CCCNCC4)c(=O)c2cc1OC)-c1cc2c(cc1C3=O)OCO2.Cl.Cl [Compound 5v, Dihydrochloride]" reported_property=GI50 reported_value=214

Query `COc1ccc2c(c1)C(=O)c1c-2n(CCCN(C)C)c(=O)c2ccccc12` on colon HCT-116; GI50 returned: 102

Query `COc1ccc2c(c1)C(=O)c1c-2n(CCCN=[N+]=[N-])c(=O)c2ccccc12` on colon HCT-116; GI50 returned: 26900

Query `COc1cc2c(=O)n(CCCN3CCOCC3)c3c(c2cc1O)C(=O)c1cc2c(cc1-3)OCO2` on colon HCT-116; GI50 returned: 390

###

Tested on: CNS SF-539
Experiment: COMPARE screening (NCI human cancer cell line screen), cytotoxicity GI50
Type: cell-based
// GI50 lookup, one value per entry
Write down the numeric answer in nM and omit the unit.

test_smiles=COc1ccc2c(c1)C(=O)c1c-2n(CCCI)c(=O)c2cc([N+](=O)[O-])ccc12 reported_value=58

Here is the next item to consider.
response.value for `Cl.NCCn1c2c(c3ccccc3c1=O)C(=O)c1ccccc1-2` (field: GI50) = 210

###

// GI50 lookup, one value per entry
System: CNS SF-539
Experiment: COMPARE screening (NCI human cancer cell line screen), cytotoxicity GI50
Assay type: cell-based
Write down the numeric answer in µM and omit the unit.

// worked examples, GI50 included
molecule="NCCCn1c2c(c3ccccc3c1=O)C(=O)c1ccccc1-2 [Compound S-3, reference compound]" assay_system="CNS SF-539" reported_property=GI50 unit_of_measure=µM reported_value=0.25
molecule=O=C1c2ccccc2-c2c1c1ccccc1c(=O)n2CCCn1ccnc1 assay_system="CNS SF-539" reported_property=GI50 unit_of_measure=µM reported_value=2.34
molecule="COc1cc2c3c(n(CCCn4ccnc4)c(=O)c2cc1OC)-c1cc2c(cc1C3=O)OCO2.Cl [Compound 5l, Hydrochloride]" assay_system="CNS SF-539" reported_property=GI50 unit_of_measure=µM reported_value=0.037
molecule="O=C(O)C(F)(F)F.O=C1c2ccccc2-c2c1c1ccccc1c(=O)n2CCCNCCn1c2c(c3ccccc3c1=O)C(=O)c1ccccc1-2 [Compound 14a]" assay_system="CNS SF-539" reported_property=GI50 unit_of_measure=µM reported_value=14.5
molecule=O=C1c2ccccc2-c2c1c1ccccc1c(=O)n2CCN1CCOCC1 assay_system="CNS SF-539" reported_property=GI50 unit_of_measure=µM reported_value=85.1

Here is the next item to consider.
response.value for `CC(C)(C)OC(=O)NCCCCCCCCCCCn1c2c(c3ccccc3c1=O)C(=O)c1ccccc1-2` (field: GI50) = 29.5

###

Tested on: prostate DU-145
Assay: COMPARE screening (NCI human cancer cell line screen), cytotoxicity GI50
Format: cell-based
// GI50 lookup, one value per entry
Write down the numeric answer in nM and omit the unit.

// worked examples, GI50 included
molecule=Cl.O=C1c2ccccc2-c2c1c1ccccc1c(=O)n2CCCNCCO assay_system="prostate DU-145" reported_value=174
molecule=CC(C)(C)OC(=O)NCCCCCCCn1c2c(c3ccccc3c1=O)C(=O)c1ccccc1-2 assay_system="prostate DU-145" reported_value=31600

response.value for O=C1c2ccccc2-c2c1c1ccccc1c(=O)n2CCNCCO [Compound S-2, oracin, reference compound] (field: GI50) = 1280

###

Test system: breast MDA-MB-435
Experiment: COMPARE screening (NCI human cancer cell line screen), cytotoxicity GI50
Assay type: cell-based
GI50 strictly under 600 nM means Fulfilled; at 600 nM or over means Not fulfilled.

compound=Cl.NCCCCn1c2c(c3ccccc3c1=O)C(=O)c1ccccc1-2 class_label="Not fulfilled"

# input Please indicate whether the reported GI50 of `Cl.O=C1c2ccccc2-c2c1c1ccccc1c(=O)n2CCCNCCO` is strictly below 600 nM.
# output Fulfilled

# input Please indicate whether the reported GI50 of COc1cc2c3c(n(CCCn4ccnc4)c(=O)c2cc1OC)-c1cc2c(cc1C3=O)OCO2.Cl [Compound 5l, Hydrochloride] is strictly below 600 nM.
# output Fulfilled

# input Please indicate whether the reported GI50 of `COc1cc2c3c(n(CCCN(C)C)c(=O)c2cc1OC)-c1ccccc1C3=O` is strictly below 600 nM.
# output Not fulfilled

# input Please indicate whether the reported GI50 of `COc1ccc2c(c1)C(=O)c1c-2n(CCCn2ccnc2)c(=O)c2ccccc12` is strictly below 600 nM.
# output Not fulfilled

# input Please indicate whether the reported GI50 of Cl.O=C1c2ccccc2-c2c1c1ccccc1c(=O)n2CCCCNCCCn1c2c(c3ccccc3c1=O)C(=O)c1ccccc1-2 [Compound 14b, Hydrochloride] is strictly below 600 nM.
# output Fulfilled

# input Please indicate whether the reported GI50 of O=C(O)C(F)(F)F.O=C(O)C(F)(F)F.O=C1c2ccccc2-c2c1c1ccccc1c(=O)n2CCCNCCCCNCCCn1c2c(c3ccccc3c1=O)C(=O)c1ccccc1-2 [Compound 14h] is strictly below 600 nM.
# output Not fulfilled

###

System: prostate DU-145
Test: COMPARE screening (NCI human cancer cell line screen), cytotoxicity GI50
Assay type: cell-based
Conditions: prostate DU-145; concentration corresponding to 50% growth inhibition; read-out: cytotoxicity (GI50 in μM) prostate DU-145
// GI50 lookup, one value per entry
Write down the numeric answer in µM and omit the unit.

// worked examples, GI50 included
compound="O=C(O)C(F)(F)F.O=C(O)C(F)(F)F.O=C1c2ccccc2-c2c1c1ccc([N+](=O)[O-])cc1c(=O)n2CCNCCCNCCn1c2c(c3ccc([N+](=O)[O-])cc3c1=O)C(=O)c1ccccc1-2 [Compound 14m]" reported_property=GI50 reported_value=0.813
compound="COc1cc2c3c(n(CCNCCCNCCn4c5c(c6cc(OC)c(OC)cc6c4=O)C(=O)c4ccccc4-5)c(=O)c2cc1OC)-c1ccccc1C3=O.O=C(O)C(F)(F)F.O=C(O)C(F)(F)F [Compound 14k]" reported_property=GI50 reported_value=0.209
compound="CC(C)(C)OC(=O)N(CCCCN(CCCn1c2c(c3ccccc3c1=O)C(=O)c1ccccc1-2)C(=O)OC(C)(C)C)CCCn1c2c(c3ccccc3c1=O)C(=O)c1ccccc1-2 [Compound 13d]" reported_property=GI50 reported_value=47.9

Here is the next item to consider.
response.value for COc1cc2c3c(n(CCCNCCCNCCCn4c5c(c6ccccc6c4=O)C(=O)c4ccccc4-5)c(=O)c2cc1OC)-c1cc2c(cc1C3=O)OCO2.O=C(O)C(F)(F)F.O=C(O)C(F)(F)F [Compound 17a] (field: GI50) = 0.01
